Measured MIC, listed per entry for reference.
System: Meyerozyma guilliermondii
Assay: Antifungal activity against Candida guilliermondii T-47 assessed as reduction in fungal cell growth incubated for 24 hrs by MTT based broth double dilution method
Assay type: functional
Details: T-47, 24 h

compound	MIC, µg/mL
CC(=O)N1CCN(c2ccc(OCC3COC(Cn4ccnc4)(c4ccc(Cl)cc4Cl)O3)cc2)CC1 (racemic)	0.007
CCN(CC)c1ccc2cc(C(=O)NCC(O)(Cn3cncn3)c3ccc(Cl)cc3Cl)c(=O)oc2c1 (racemic)	0.25
O=C(NCC(O)(Cn1cncn1)c1ccc(F)cc1F)c1cc2ccccc2oc1=O (racemic)	1
CCC(CC)Oc1ccc2cc(C(=O)NCC(O)(Cn3cncn3)c3ccc(Cl)cc3Cl)c(=O)oc2c1 (racemic)	0.5
OC(Cn1cncn1)(Cn1cncn1)c1ccc(F)cc1F	4
